Origin of measurements: paper PMC11811207

# target.or.test.system: N-truncated CypB (Homo sapiens)
# Sequence (P23284 34-212): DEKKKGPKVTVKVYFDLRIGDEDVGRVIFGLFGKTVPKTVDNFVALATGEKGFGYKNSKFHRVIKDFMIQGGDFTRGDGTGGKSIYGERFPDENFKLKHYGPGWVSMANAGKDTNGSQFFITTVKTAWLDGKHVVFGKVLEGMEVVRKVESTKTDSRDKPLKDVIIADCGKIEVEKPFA
# assay.notes: SPR against N-truncated CypB (immobilised on CM5 chip)
# measurement.setup: CypB dissociation constant (KD) from sigmoid fit, representative experiment, one of two independent experiments, Supplementary Fig. 3
observed.property: pKd
Numbers only, as −log10 of the molar value.

Task: Supply measured pKd of C[C@@H]1NC(=O)[C@H](Cc2ccc([N+](=O)[O-])cc2)NC(=O)C/C=C/c2ccc3ccc(nc3c2)[C@@H](C)OC(=O)[C@@H]2CCCN(N2)C1=O in your reply.
Output: 6.79

====

# target.or.test.system: N-truncated CypB (Homo sapiens)
# assay.notes: SPR against N-truncated CypB (immobilised on CM5 chip)
# measurement.setup: CypB KD, SPR equilibrium analysis, N-truncated CypB, mean of two independent experiments ± SD
observed.property: Kd (nM)
Answers are plain numbers, in nM.

Task: Quote N-truncated CypB (Homo sapiens) Kd for entry C[C@@H]1NC(=O)[C@H](Cc2ccc([N+](=O)[O-])cc2)NC(=O)C/C=C/c2ccc3ccc(nc3c2)[C@@H](C)OC(=O)[C@@H]2CCCN(N2)C1=O .
Output: 139

====

# target.or.test.system: full-length human CypA (Homo sapiens)
# Sequence (P62937 whole entry): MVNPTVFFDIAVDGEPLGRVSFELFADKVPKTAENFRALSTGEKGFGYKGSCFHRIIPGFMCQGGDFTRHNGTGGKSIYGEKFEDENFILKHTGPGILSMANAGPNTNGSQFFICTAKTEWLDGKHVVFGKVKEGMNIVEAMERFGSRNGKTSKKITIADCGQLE
# assay.notes: SPR against CypA (immobilised on CM5 chip)
# measurement.setup: CypA KD, SPR equilibrium analysis, full-length CypA, mean of two independent experiments ± SD
observed.property: pKd
Numbers only, as −log10 of the molar value.

Task: Give pKd for this entry on full-length human CypA (Homo sapiens): C[C@@H]1NC(=O)[C@H](Cc2ccc([N+](=O)[O-])cc2)NC(=O)C/C=C/c2ccc3ccc(nc3c2)[C@@H](C)OC(=O)[C@@H]2CCCN(N2)C1=O
Output: 7.28
